System: Ipomoea hederacea (IPOHE)
experiment: Post-emergence Test, Ipomoea hederacea (IPOHE)
Assay type: in vivo
experimental context: 1000 g/ha, evaluated after 13 days
List of Post-emergence Test IPOHE, percentage damage caused to the plant (five-point scale) values.
measurement kind: Post-emergence Test IPOHE, percentage damage caused to the plant (five-point scale)

INSERT INTO results (molecule, assay_system, measured) VALUES
  ('CCn1c(Cn2ccc(-c3ccncc3)n2)cc(=O)c(C(=O)O)c1-c1ccc(Cl)c(Cl)c1 [Compound 195]', 'Ipomoea hederacea (IPOHE)', '1 (1=0-20%)'),
  ('CCn1c(Cn2ccc(-c3ccco3)n2)cc(=O)c(C(=O)O)c1-c1ccc(Cl)c(Cl)c1 [Compound 200]', 'Ipomoea hederacea (IPOHE)', '1 (1=0-20%)'),
  ('CCn1c(Cn2ccc(-c3cccc(Cl)c3)n2)cc(=O)c(C(=O)O)c1-c1ccc(Cl)c(Cl)c1 [Compound 202]', 'Ipomoea hederacea (IPOHE)', '1 (1=0-20%)'),
  ('CCn1c(Cn2ccc(-c3nccs3)n2)cc(=O)c(C(=O)O)c1-c1ccc(Cl)c(Cl)c1 [Compound 201]', 'Ipomoea hederacea (IPOHE)', '2 (2=21-40%)'),
  ('CCn1c(Cn2ccc(/C=N/OC)n2)cc(=O)c(C(=O)O)c1-c1ccc(Cl)c(Cl)c1 [Compound 204]', 'Ipomoea hederacea (IPOHE)', '3 (3=41-60%)'),
  ('CCn1c(Cn2ccc(-c3cccs3)n2)cc(=O)c(C(=O)O)c1-c1ccc(Cl)c(Cl)c1 [Compound 194]', 'Ipomoea hederacea (IPOHE)', '2 (2=21-40%)'),
  ('CCn1c(Cn2ccc(-c3ccc(C)cc3)n2)cc(=O)c(C(=O)O)c1-c1ccc(Cl)c(Cl)c1 [Compound 196]', 'Ipomoea hederacea (IPOHE)', 0);
